Measured TGI, listed per entry.
Tested on: 786-0 renal
ASSAY_OVERVIEW: NCI tumour cell line growth inhibition, 48 h
MEASURED_PARAMETER: TGI

                                   compound    result
0     O=C1c2ccccc2S(=O)(=O)N1CSC(=S)N1CCCC1  > 100 µM
1               C=CCNC1=C(C(=O)OCC)C(=O)CO1  > 100 µM
2  COc1ccc(CNc2nc(NCc3ccc(OC)cc3)nc(Nc3ccccc3)n2)cc1  > 100 µM
3  C=C1C(=O)O[C@H]2[C@H]1CC/C(COC(=O)C(=O)c1c[nH]c3ccc(OC)cc13)=C\CC[C@@]1(C)O[C@@H]21   9.91 µM
4  CCOc1ccccc1NC(=O)CCc1nnc2s/c(=C\CCc3ccccc3)c(=O)n12  > 100 µM
5  Cn1c(C(C#N)c2cc(Cl)ncn2)nc2ccccc21 (centres undefined)  > 100 µM
6  CC1=C(C(=O)OCCO[N+](=O)[O-])C(c2ccccc2C(F)(F)F)C(C(=O)OC(C)C)=C(C)N1 (centres undefined)   36.6 µM
7  COc1ccc(/C=C(/C(=O)N2CCCC2)c2cc(OC)c(OC)c(OC)c2)cc1N  > 100 µM
8  Cc1ccc(NS(=O)(=O)c2cc(C(C)(C)C)ccc2OCCOCCOCCOc2ccc(C(C)(C)C)cc2S(=O)(=O)Nc2ccc(C)cc2)cc1  > 100 µM

----------
Tested on: CAKI-1 renal
ASSAY_OVERVIEW: NCI tumour cell line growth inhibition, 48 h

COMPOUND	TGI
O=C(CCCCCCCCC(=O)NN1C(=O)/C(=C\c2ccc(O)c(O)c2)SC1c1c(O)ccc2ccccc12)NN1C(=O)C(=Cc2ccc(O)c(O)c2)SC1c1c(O)ccc2ccccc12 (stereo unspecified)	> 100 µM
COc1ccc(CNc2nc(NCc3ccc(OC)cc3)nc(Nc3ccccc3)n2)cc1	10.4 µM
COc1ccc(-c2cc(-c3ccc(Nc4ccnc5cc(C(F)(F)F)ccc45)cc3)[nH]c(=O)c2C#N)c2ccccc12	> 100 µM
N#Cc1c[nH]n2ccnc12	> 100 µM
O=C(O)c1c(-c2c3ccc(=O)cc-3oc3cc(O)ccc23)cc2ccccc2c1-c1ccccc1	> 100 µM
O=C(O)Cc1ccc(N2N=C(c3ccccc3)CC2=O)cc1	> 100 µM
O=C1c2ccccc2S(=O)(=O)N1CSC(=S)N1CCCC1	> 100 µM
C[n+]1c2ccccc2c(CNC(CCC(N)=O)C(=O)O)c2ccccc21 (stereo unspecified)	7.53 µM
Cc1cc(C)c2c(n1)S(=O)(=O)N(CCCN1CCN(c3cccc(C(F)(F)F)c3)CC1)/C(=C(\O)c1ccccc1)C2=O	11.9 µM
O=C1/C(=C/c2ccccc2)SC(=Nc2ccccc2)N1Nc1ccccc1	> 100 µM
Oc1[nH]c2ccccc2c1N=NC1=NCCCCN1	> 100 µM

----------
Measured TGI, listed per entry.
Tested on: UACC-62 melanoma
ASSAY_OVERVIEW: NCI tumour cell line growth inhibition, 48 h

COMPOUND	TGI
NC1CC2C3CCC2C1C3=O (stereo not drawn)	> 100 µM
Cc1cc(N(CCC#N)CCC#N)ccc1/C=C(\NC(=O)/C=C/c1ccccc1)NC(=O)Nc1ccc(Cl)cc1	> 100 µM
C=C(C)CCC1CCCCC(CN(C)C)C1=O (stereo not drawn)	> 100 µM
Cc1ccc(S(=O)(=O)CNC(=S)CCCC(=S)NCS(=O)(=O)c2ccc(C)cc2)cc1	> 100 µM
O=C1C=CC(=O)C1(Br)Br	25.3 µM
C=C(CN(CC(=C)C(=O)c1ccccc1)C(C)(C)C)C(=O)c1ccccc1	32.4 µM
CC(SC(=S)N1CCCCC1)C(=O)Nc1nnc(-c2ccc(Cl)cc2)o1 (stereo not drawn)	75.1 µM
O=c1nc2n(cc1/C=C\Br)C1CC(O)C(CO2)O1 (stereo not drawn)	> 100 µM
O=[N+]([O-])c1ccc(/C=C/c2ccc(N=Nc3ccc(/C=C/c4ccc([N+](=O)[O-])cc4S(=O)(=O)O)c(S(=O)(=O)O)c3)cc2S(=O)(=O)O)c(S(=O)(=O)O)c1	> 100 µM
COc1ccc(C(=O)N2CCN(c3ccc4c(c3)OCC(=O)N4)CC2)cc1	> 100 µM
CC(C)(C)c1cc(-c2ccc(-c3cc(C(C)(C)C)c(O)c(C(C)(C)C)c3)cc2)cc(C(C)(C)C)c1O	> 100 µM
O=C([O-])c1ccc2c(c1)-c1nc-2nc2[n-]c(nc3nc(nc4[n-]c(n1)c1ccc(C(=O)[O-])cc41)-c1cc(C(=O)[O-])ccc1-3)c1ccc(C(=O)[O-])cc21.[Fe+2]	> 50 µM
N[C@@H]1c2c(Br)sc(Br)c2[C@H](O)[C@@H]1O	> 100 µM

Cited source: PubChem BioAssay (NCI)
